biological target: HLA-A*02:01; test: IEDB peptide-MHC binding, purified MHC/competitive/radioactivity; bounds were set here for any values at or beyond the usual limits of such assays; details: source organism: Vaccinia virus WR
pIC50: −log10 of the molar value.
Classify on pIC50 using label 0: < 6; label 1: ≥ 6 and < 7; label 2: ≥ 7

Dear colleague, I would appreciate it if you could identify the bin for EVIERINLLV and reply at your convenience.
label 0

Form field 'band' for SLCPTKKLV
label 0

For FTSSFYNYV , which pIC50 bin applies?
label 2

State the class of the sequence shown: SLVSKHWEL
label 2

Hey, which category is ITYCLVTHM in, do you know?
label 0

More entries:
For the record FVDTMSIYIA , report the class its pIC50 corresponds to.
label 0

Which of the defined bands does the recorded pIC50 of FTFTIYTDEV sit within?
label 1

Using the reported pIC50, which band applies to LIYSMEFTNL ?
label 1

Kindly state the category for this sequence: FLFWFLKSGA
label 2

Hello team, could you let me know which band the following sequence falls into: LLNPCLINV
label 2

Form: Item = KLSDVGHQYA ; Class = ?
label 2

Into which category would you place GLILFVLAL ?
label 1

Category of VISVIFYFI , please.
label 1

Record NTVGMSIVCI — which class?
label 0

====

molecular target: HLA-A*02:01; assay: IEDB peptide-MHC binding, purified MHC/competitive/radioactivity; bounds were set here for any values at or beyond the usual limits of such assays; conditions: source organism: Vaccinia virus WR
Recorded Endpoint: pIC50
One number for each entry, as −log10 of the molar value.

Completed entries (count: 3):
Determine its reported pIC50: SLSSQMTST
5.70

// Input: ILATLNTLI . Output its pIC50 only.
7.82

Name the recorded pIC50 of the item YVVIVENDNV in your answer.
6.26

// next item, pIC50 requested
Return reported pIC50. Input sequence: HMNEIRINI
6.17

====

biological target: HLA-A*02:06; test: IEDB peptide-MHC binding, purified MHC/competitive/radioactivity; bounds were set here for any values at or beyond the usual limits of such assays; settings: source organism: Vaccinia virus WR
I'd be grateful if you could share measured pIC50 for these entries.
Numbers only, as −log10 of the molar value.

Here are 8 sequences together with their reported answers.
Answer with reported pIC50 of SLTTIGTIA
6.31

Identify pIC50 associated with the sequence IVNTTYDFLA
6.02

Return reported pIC50. Input sequence: YALEPRKEI
5.39

Read off the recorded pIC50 for EVNDTHYTV
5.32

Quote pIC50 reported for IALALEQYGI please.
5.95

State its pIC50: IASILSLETV
7.33

Please give measured pIC50 of the following entry: PIPYSRVNHA
5.84

# return recorded pIC50 for entry FLQISRVNDL
6.24

Provide the reported pIC50 of each entry below, same order.
1. LATLNTLITL
2. VQSVLRDISI
3. ALINLVQYRI

1. 6.49
2. 6.88
3. 6.38

Dear reader, for each entry below, please note its pIC50.
1. IIYSKAGNIL
2. LLLENKSLTI
3. IAGGVCYYLL
4. FLARKGIDT
5. SMMVILPDKI
6. YAVLSEYETM

6.47
5.88
6.18
5.52
8.24
5.92
